Tested on: Helicobacter pylori
experiment: MIC, broth dilution method, Helicobacter pylori
Assay type: cell-based
test_settings: Helicobacter pylori; Table IV; MIC, lowest concentration that inhibits bacterial growth; read-out: Antibacterial Activity (micrograms/ml) Helicobacter pylori
property: MIC

// below: answered compounds
[
  {
    "compound": "COc1cc2c(cc1Br)CCC(C(=O)OC(C)(C)C)C(=O)N2Cc1cccc(F)c1 (racemic)",
    "MIC": "1.56 µg/mL"
  },
  {
    "compound": "CCN1C(=O)C(C(=O)OC(C)(C)C)CCc2cc(N3CCNCC3)c(OC)cc21 (racemic)",
    "MIC": "50 µg/mL"
  },
  {
    "compound": "COc1ccc2c(c1)N(C(=O)OC(C)(C)C)C(=O)C(C(=O)OC(C)(C)C)CC2 (racemic)",
    "MIC": "50 µg/mL"
  },
  {
    "compound": "CCN1C(=O)C(C(=O)O)CCc2cc(N3CCNCC3)c(OC)cc21.Cl (racemic)",
    "MIC": "> 200 µg/mL"
  },
  {
    "compound": "COc1ccc2c(c1)N(Cc1cccc(F)c1)C(=O)C(C(=O)OC(C)(C)C)CC2 (racemic)",
    "MIC": "12.5 µg/mL"
  }
]

Qu. Entry CCOC(=O)C1(CC)CCc2ccc(OC)cc2N(CC)C1=O (racemic) has what MIC?
Ans. 12.5 µg/mL

----------
Recorded melting point for the following molecules

Answered examples (4):
[
  {
    "molecule": "CCN1C(=O)C(C(=O)OC(C)(C)C)CCc2ccc(OC)cc21 (racemic)",
    "melting point": "132 to 133 °C"
  },
  {
    "molecule": "CCOC(=O)C1CCc2ccc(OC)cc2NC1=O (racemic)",
    "melting point": "89 to 91 °C"
  },
  {
    "molecule": "CCN1C(=O)C(C(=O)O)CCc2cc(N3CCNCC3)c(OC)cc21.Cl (racemic)",
    "melting point": "173 to 176 °C (dec.)"
  },
  {
    "molecule": "COc1cc2c(cc1Br)CCCC(=O)N2",
    "melting point": "180 to 182 °C"
  }
]

Now consider the entry below.
Qu. # lookup: melting point of CCN1C(=O)C(C(=O)OC(C)(C)C)CCc2ccc(O)cc21 (racemic)
Ans. 154 to 156 °C

----------
Recorded melting point for the following compounds

[
  {
    "compound": "CCN1C(=O)C(C(=O)OC(C)(C)C)C=Cc2ccc(OC)cc21 (racemic) [Example 16]",
    "melting point": "173 to 174 °C"
  },
  {
    "compound": "CCN1C(=O)C(C(=O)OC(C)(C)C)CCc2cc(Br)c(OC)cc21 (racemic) [Example 13]",
    "melting point": "131 to 132 °C"
  },
  {
    "compound": "COc1ccc2c(c1)NC(=O)CCC2 [Example 2]",
    "melting point": "105 to 106 °C"
  },
  {
    "compound": "COc1ccc2c(c1)NC(=O)C(C(=O)OC(C)(C)C)CC2 (racemic) [Example 11]",
    "melting point": "145 to 147 °C"
  }
]

Qu. Fill in: melting point of CCN1C(=O)CCCc2cc(Br)c(OC)cc21 [Example 9] is ___
Ans. 133 to 135 °C

Qu. Given the compound COc1cc2c(cc1Br)CCC(C(=O)OC(C)(C)C)C(=O)N2 (racemic) [Example 32] , what is its reported melting point?
Ans. 207 to 208 °C

Qu. Which melting point value belongs to CCN1C(=O)C(C(=O)O)CCc2cc(Br)c(OC)cc21 (racemic) [Example 17] ?
Ans. 188 to 189 °C (dec.)

Qu. Query (compound): O=C1CCCc2cc([N+](=O)[O-])c(O)cc2N1 [Example 175] ; field requested: melting point
Ans. 239 to 240 °C

Qu. Could you share which melting point value was measured for CCN1C(=O)C(C(=O)O)CCc2ccc(OC)cc21 (racemic) [Example 5] ?
Ans. 120 to 121 °C

----------
Test system: Helicobacter pylori
experiment: MIC, broth dilution method, Helicobacter pylori
Type: cell-based
test_settings: Helicobacter pylori; Table IV; MIC, lowest concentration that inhibits bacterial growth; read-out: Antibacterial Activity (micrograms/ml) Helicobacter pylori
Source text: Antibacterial activity can be determined by several standard methods well known by those skilled in the art, including disc diffusions methods, broth dilution minimal inhibitory concentration (MIC) methods, etc., including the detailed method outlined below and as defined by the National Committee of Clinical Laboratory Standards in the United States. MIC, Broth Dilution Method […]
property: MIC (µg/mL)
Expressed in µg/mL, but write only the number.

[
  {
    "molecule": "COc1cc2c(cc1Br)CCCC(=O)N2 [Example 24]",
    "data_value": 100
  }
]

Qu. Look up MIC: CCN1C(=O)C(C(=O)OC)CCc2cc(Br)c(OC)cc21 (racemic) [Example 28]
Ans. 25

Qu. Could you tell me which MIC is on file for CCN1C(=O)C(CC)(C(=O)O)CCc2ccc(OC)cc21 (racemic) [Example 7] ?
Ans. 100

Qu. Which measured MIC value corresponds to CCN1C(=O)CCCc2cc(Br)c(OC)cc21 [Example 9] ?
Ans. 100

----------
Let's look at some molecules and their measured melting point.

[
  {
    "molecule": "COc1ccc2c(c1)N(C(=O)OC(C)(C)C)C(=O)C(C(=O)OC(C)(C)C)CC2 (racemic)",
    "property": "melting point",
    "data_value": "91 to 92 °C"
  },
  {
    "molecule": "CC(C)(C)OC(=O)C1CCc2cc([N+](=O)[O-])c(O)cc2NC1=O (racemic)",
    "property": "melting point",
    "data_value": "189 to 191 °C (dec.)"
  },
  {
    "molecule": "CCN1C(=O)C(C(=O)OC(C)(C)C)CCc2cc(N3CCNCC3)c(OC)cc21 (racemic)",
    "property": "melting point",
    "data_value": "165 °C (dec.)"
  }
]

Qu. Could you share which melting point value was measured for COc1cc2c(cc1Br)CCC(C(=O)OC(C)(C)C)C(=O)N2Cc1cccc(F)c1 (racemic) ?
Ans. 146 to 148 °C

----------
Examples of compounds with documented MIC follow.
System: Helicobacter pylori
experiment: MIC, broth dilution method, Helicobacter pylori
Assay type: cell-based
test_settings: Helicobacter pylori; Table IV; MIC, lowest concentration that inhibits bacterial growth; read-out: Antibacterial Activity (micrograms/ml) Helicobacter pylori
Use µg/mL as the unit, but write only the number.

Some compounds with recorded MIC:
[
  {
    "compound": "CCN1C(=O)C(C(=O)OC(C)(C)C)CCc2ccc(OC)cc21 (racemic)",
    "value_unit": "µg/mL",
    "MIC": 50
  },
  {
    "compound": "CCN1C(=O)C(C(=O)O)CCc2cc(Br)c(OC)cc21 (racemic)",
    "value_unit": "µg/mL",
    "MIC": 200
  },
  {
    "compound": "O=C1CCCc2ccc(O)cc2N1",
    "value_unit": "µg/mL",
    "MIC": 0.78
  },
  {
    "compound": "O=C1CCCc2cc([N+](=O)[O-])c(O)cc2N1",
    "value_unit": "µg/mL",
    "MIC": 1
  },
  {
    "compound": "CCN1C(=O)C(C(=O)O)CCc2ccc(OC)cc21 (racemic)",
    "value_unit": "µg/mL",
    "MIC": 100
  }
]

Qu. Which MIC value belongs to CCN1C(=O)C(Br)(C(=O)OC)CCc2cc(Br)c(OC)cc21 (racemic) ?
Ans. 12.5

Qu. Quick check: MIC of COc1cc2c(cc1Br)CCC(C(=O)OC(C)(C)C)C(=O)N2 (racemic) ?
Ans. 0.78

Qu. Which MIC value is on record for COc1ccc2c(c1)NC(=O)C(C(=O)OC(C)(C)C)CC2 (racemic) ?
Ans. 50

----------
property: melting point

[
  {
    "molecule": "COc1ccc2c(c1)NC(=O)C(C(=O)NOCc1ccccc1)CC2 (stereo not drawn)",
    "melting point": "162 to 164 °C"
  },
  {
    "molecule": "COc1cc2c(cc1[N+](=O)[O-])CCC(C(=O)OC(C)(C)C)C(=O)N2C(=O)OC(C)(C)C (racemic)",
    "melting point": "142 to 144 °C (dec.)"
  }
]

# evaluate next
Qu. Need melting point, item "O=C1CCCc2ccc(O)cc2N1"
Ans. 226 to 227 °C

----------
Tested on: Helicobacter pylori
experiment: MIC, broth dilution method, Helicobacter pylori
Format: cell-based
test_settings: Helicobacter pylori; Table IV; MIC, lowest concentration that inhibits bacterial growth; read-out: Antibacterial Activity (micrograms/ml) Helicobacter pylori
Measured MIC values are reported for all entries that follow.

// known answers, use as guide
[
  {
    "compound": "CCN1C(=O)C(C(=O)OC(C)(C)C)CCc2cc(Br)c(OC)cc21 (racemic)",
    "measured_target": "Helicobacter pylori",
    "MIC": "6.25 to 12.5 µg/mL"
  },
  {
    "compound": "CCN1C(=O)C(C(=O)NC(C)(C)C)CCc2cc(Br)c(OC)cc21 (racemic)",
    "measured_target": "Helicobacter pylori",
    "MIC": "> 200 µg/mL"
  },
  {
    "compound": "CCN1C(=O)C(C(=O)OC(C)(C)C)C=Cc2ccc(OC)cc21 (racemic)",
    "measured_target": "Helicobacter pylori",
    "MIC": "> 6.25 µg/mL"
  },
  {
    "compound": "CCN1C(=O)CCCc2ccc(OC)cc21",
    "measured_target": "Helicobacter pylori",
    "MIC": "> 200 µg/mL"
  },
  {
    "compound": "COc1ccc2c(c1)NC(=O)CCC2",
    "measured_target": "Helicobacter pylori",
    "MIC": "> 200 µg/mL"
  },
  {
    "compound": "CCOC(=O)C1CCc2ccc(OC)cc2NC1=O (racemic)",
    "measured_target": "Helicobacter pylori",
    "MIC": "50 to 100 µg/mL"
  },
  {
    "compound": "CCN1C(=O)CCCc2cc(N3CCNCC3)c(OC)cc21.Cl",
    "measured_target": "Helicobacter pylori",
    "MIC": "> 200 µg/mL"
  }
]

Proceed to the following item.
Qu. Given the entry CCOC(=O)C1CCc2ccc(OC)cc2N(CC)C1=O (racemic) , report its measured MIC.
Ans. 125 to 250 µg/mL
